List of inhibition at 10 µM values.
target: 5-lipoxygenase (Cavia porcellus, UniProt A0A286X958); construct: leucocytes isolated from abdominal cavity of guinea pig; endogenous in cells; host or cells: leucocytes isolated from the abdominal cavity of guinea pig (intact cells); assay: 5-Lipoxygenase inhibitory activity (inhibition of 5-HETE production) in guinea pig abdominal leucocytes; assay type: cell-based; conditions: 10 μM compound, A 23187, 14C-arachidonic acid, read-out: Inhibition (5-HETE production, inhibition rate)
Sequence (A0A286X958 1-674): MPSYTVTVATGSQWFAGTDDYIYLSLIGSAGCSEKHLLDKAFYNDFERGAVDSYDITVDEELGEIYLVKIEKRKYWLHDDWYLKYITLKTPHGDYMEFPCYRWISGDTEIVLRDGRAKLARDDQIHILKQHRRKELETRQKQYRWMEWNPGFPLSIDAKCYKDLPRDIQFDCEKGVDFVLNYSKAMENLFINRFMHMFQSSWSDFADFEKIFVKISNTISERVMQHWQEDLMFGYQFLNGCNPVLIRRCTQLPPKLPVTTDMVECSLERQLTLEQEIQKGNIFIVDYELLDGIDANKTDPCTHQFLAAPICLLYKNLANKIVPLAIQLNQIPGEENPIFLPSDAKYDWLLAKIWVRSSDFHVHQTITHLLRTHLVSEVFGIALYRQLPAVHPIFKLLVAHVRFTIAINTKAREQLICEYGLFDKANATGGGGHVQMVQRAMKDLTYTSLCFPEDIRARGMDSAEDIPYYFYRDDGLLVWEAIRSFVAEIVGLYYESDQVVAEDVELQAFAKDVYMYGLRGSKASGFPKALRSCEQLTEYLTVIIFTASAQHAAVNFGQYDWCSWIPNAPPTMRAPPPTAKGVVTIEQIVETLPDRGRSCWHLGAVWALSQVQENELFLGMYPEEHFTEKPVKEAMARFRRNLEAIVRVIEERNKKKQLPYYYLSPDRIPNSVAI

{"COMPOUND": "CC(CCc1ccccc1)N[C@H](C(=O)N1CCc2ccccc21)[C@H](O)c1ccc(O)c(O)c1 (relative stereo)", "SUBJECT_OF_TEST": "5-lipoxygenase (Cavia porcellus, UniProt A0A286X958)", "inhibition at 10 µM": "> 70%"}

Entry CC(CCc1ccccc1)N[C@H](CO)[C@H](O)c1ccc(O)c(O)c1 (relative stereo) , 5-lipoxygenase (Cavia porcellus, UniProt A0A286X958) data, inhibition at 10 µM value: > 70%

Simply: CC(CCc1ccccc1)N[C@H](C(=O)N1CCCC1)[C@H](O)c1ccc(O)c(O)c1 (relative stereo) , 5-lipoxygenase (Cavia porcellus, UniProt A0A286X958), inhibition at 10 µM = > 70%

Form field, inhibition at 10 µM with 5-lipoxygenase (Cavia porcellus, UniProt A0A286X958), item CCOC(=O)[C@@H](NC(C)CCc1ccccc1)[C@H](O)c1ccc(O)c(O)c1 (relative stereo) : > 70%

Item COC(=O)[C@@H](NC(C)CCC(C)C)[C@H](O)c1ccc(O)c(O)c1 (relative stereo) ; assay system 5-lipoxygenase (Cavia porcellus, UniProt A0A286X958); inhibition at 10 µM reported as > 70%

Bench note, 5-lipoxygenase (Cavia porcellus, UniProt A0A286X958): entry COC(=O)[C@@H](NC(C)CCc1ccc(OC)cc1)[C@H](O)c1ccc(O)c(O)c1 (relative stereo) , its inhibition at 10 µM = > 70%

* * *

Overview of recorded inhibition at 1 µg/mL for various molecules
System: SRS-A
Assay: Anti-SRS-A activity by Magnus method, isolated guinea pig ileum
Assay type: cell-based
Conditions: Cavia porcellus, 5 min, drug at 10^-6 g/ml (values without *), read-out: Inhibition (anti-SRS-A activity, inhibition rate)
Description: Anti-SRS-A activity of the drugs (the compounds of the present invention) was assayed by using isolated ileum of guinea pig (weighing 300-400 g, male). SRS-A sample was prepared as follows. Male albino guinea-pigs were administered by intraperitoneal and subcutaneous injection of 50 mg ovalbumin emulsified with a half amount of Freund's complete adjuvant every other day (total three times). 4 Weeks after the administration lungs were isolated from guinea-pigs and chopped into small pieces. […]
API: value field is a number in %; no unit string.

{"MOLECULE": "CCOC(=O)[C@@H](NC(C)CCc1ccccc1)[C@H](O)c1ccc(O)c(O)c1 (relative stereo) [Compd. No. 132]", "SUBJECT_OF_TEST": "SRS-A", "UNITS_SYMBOL": "%", "inhibition at 1 µg/mL": 82}
{"MOLECULE": "CC(CCc1ccccc1)N[C@H](COC(N)=O)[C@H](O)c1ccc(O)c(O)c1 (relative stereo) [Compd. No. 189]", "SUBJECT_OF_TEST": "SRS-A", "UNITS_SYMBOL": "%", "inhibition at 1 µg/mL": 98}

Reported inhibition at 1 µg/mL ( COC(=O)[C@@H](NC(C)CCC(C)C)[C@H](O)c1ccc(O)c(O)c1 (relative stereo) [compound 142] ) = 91

So for CC(CCc1ccccc1)N[C@H](C(N)=O)[C@H](O)c1ccc(O)c(O)c1 (relative stereo) [compound 177] , the logged inhibition at 1 µg/mL turned out to be 86

Please fill in: inhibition at 1 µg/mL reported for CC(CCc1ccccc1)N[C@H](C(=O)OC(C)C)[C@H](O)c1ccc(O)c(O)c1 (relative stereo) [Compd. No. 158] = 96

* * *

system: SRS-A; test: Anti-SRS-A activity by Magnus method, isolated guinea pig ileum; format: cell-based; details: Cavia porcellus, 5 min, drug at 10^-6 g/ml (values without *), read-out: Inhibition (anti-SRS-A activity, inhibition rate)
VALUE_KIND: inhibition at 1 µg/mL (%)
Provide only the numeric value, understood in %.

Before answering, review these 3 worked examples.
{"COMPOUND": "CC(CCc1ccccc1)N[C@H](C(=O)N1CCCC1)[C@H](O)c1ccc(O)c(O)c1 (relative stereo) [Compd. No. 19]", "UNITS_SYMBOL": "%", "inhibition at 1 µg/mL": 100}
{"COMPOUND": "CC(CCc1ccccc1)N[C@H](C(=O)NN)[C@H](O)c1ccc(O)c(O)c1 (relative stereo) [Compd. No. 178]", "UNITS_SYMBOL": "%", "inhibition at 1 µg/mL": 81}
{"COMPOUND": "CCCCc1ccc(NC(=O)CCCCC(C)N[C@H](C(=O)OC)[C@H](O)c2ccc(O)c(O)c2)cc1 (relative stereo) [compound 147]", "UNITS_SYMBOL": "%", "inhibition at 1 µg/mL": 100}

Now, please, on to the next compound.
So, CNC(=O)[C@@H](NC(C)CCc1ccccc1)[C@H](O)c1ccc(O)c(O)c1 (relative stereo) [compound 48] ? Its inhibition at 1 µg/mL was 100

* * *

inhibition at 1 µg/mL reference
tested on: SRS-A; experiment: Anti-SRS-A activity by Magnus method, isolated guinea pig ileum; assay type: cell-based; conditions: Cavia porcellus, 5 min, drug at 10^-6 g/ml (values without *), read-out: Inhibition (anti-SRS-A activity, inhibition rate)
Write down the numeric answer in % and omit the unit.

{"COMPOUND": "COC(=O)[C@@H](NC(C)CCc1ccccc1)[C@H](O)c1ccc(O)c(O)c1 (relative stereo)", "inhibition at 1 µg/mL (%)": 97}
{"COMPOUND": "CC(CCc1ccccc1)N[C@H](CO)[C@H](O)c1ccc(O)c(O)c1 (relative stereo)", "inhibition at 1 µg/mL (%)": 97}
{"COMPOUND": "COC(=O)[C@@H](NC(C)CCCCC(=O)Nc1ccc(C(F)(F)F)cc1)[C@H](O)c1ccc(O)c(O)c1 (relative stereo)", "inhibition at 1 µg/mL (%)": 94}

Lab entry: SRS-A assay, compound COC(=O)[C@@H](NC(C)CCc1ccc(OC)cc1)[C@H](O)c1ccc(O)c(O)c1 (relative stereo) , inhibition at 1 µg/mL = 94

Sample CC(C)COC(=O)[C@@H](NC(C)CCc1ccccc1)[C@H](O)c1ccc(O)c(O)c1 (relative stereo) , system: SRS-A. Its inhibition at 1 µg/mL is 85

Form field, inhibition at 1 µg/mL with SRS-A, item COC(=O)[C@@H](NC(C)CCc1ccc(O)cc1)[C@H](O)c1ccc(O)c(O)c1 (relative stereo) : 83

So the reported inhibition at 1 µg/mL for COC(=O)[C@H](NC(C)CCc1ccccc1)[C@@H](O)c1ccc(O)c(O)c1 (stereo partly shown) , on SRS-A, turned out to be 90
